Provenance of the data: patent US20240336909

# assayed.target: AxCT mask27 EGFR EH104 L072 version 1
Provide the recorded Percent cleavage for the entries that follow.

### Prompt Dear colleague, I am looking for the recorded Percent cleavage of the following protein: MMP-1 (protein) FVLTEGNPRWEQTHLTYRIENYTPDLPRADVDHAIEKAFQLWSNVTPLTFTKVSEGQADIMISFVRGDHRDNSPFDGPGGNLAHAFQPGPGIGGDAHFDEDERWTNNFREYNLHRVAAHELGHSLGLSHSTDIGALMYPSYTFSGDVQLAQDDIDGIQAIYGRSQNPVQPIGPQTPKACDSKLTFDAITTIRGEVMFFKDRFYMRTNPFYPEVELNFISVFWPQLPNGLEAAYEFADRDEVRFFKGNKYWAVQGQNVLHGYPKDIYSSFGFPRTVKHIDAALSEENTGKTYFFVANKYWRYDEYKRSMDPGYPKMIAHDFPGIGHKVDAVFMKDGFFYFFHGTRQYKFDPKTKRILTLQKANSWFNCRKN
### Response 0%

### Prompt Looking for the measured Percent cleavage of Cathepsin G (protein) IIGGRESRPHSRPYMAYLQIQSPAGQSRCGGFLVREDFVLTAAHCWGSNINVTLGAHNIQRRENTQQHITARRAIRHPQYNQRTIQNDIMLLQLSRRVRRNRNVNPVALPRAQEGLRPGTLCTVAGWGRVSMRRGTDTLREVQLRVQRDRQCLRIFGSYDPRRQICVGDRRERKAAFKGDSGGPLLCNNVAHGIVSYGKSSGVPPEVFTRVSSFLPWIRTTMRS , can you help?
### Response 0%
